Record form. Attribute: viability, T/C. Fill in for each entry.
- System: SYO-1 complex spheroid growth, percent test/control
- protocol-description: Anticancer human tumor SYO-1 cell line growth inhibition [Asc];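 also: compound exposure lasted 7 days after spheroids grew 3 days; 100% = DMSO vehicle control viability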
- stated-conditions: second compound 0.1 µM; first compound 0.316 µM; hits give low values
Give bare numbers, in %.

Use these answered entries as a reference point.
1. C=C(F)C(=O)N1CCN(c2nc(OCC3CCCN3C)nc3c2CCN(c2cccc4cccc(Cl)c24)C3)CC1CC#N (stereo not drawn) + CNC(C)C(=O)NC1CN(S(=O)(=O)c2cccc(S(=O)(=O)N3CCC4CCC(C(=O)NC(c5ccccc5)c5ccccc5)N4C(=O)C(NC(=O)C(C)NC)C3)c2)CCC2CCC(C(=O)NC(c3ccccc3)c3ccccc3)N2C1=O : 95
2. COc1c(OCCCN2CCOCC2)ccc2c3n(c(=NC(=O)c4cnc(N)nc4)nc12)CCN3 + CNC(C)C(=O)NC1CN(S(=O)(=O)c2cccc(S(=O)(=O)N3CCC4CCC(C(=O)NC(c5ccccc5)c5ccccc5)N4C(=O)C(NC(=O)C(C)NC)C3)c2)CCC2CCC(C(=O)NC(c3ccccc3)c3ccccc3)N2C1=O : 102

Entry C=C(F)C(=O)N1CCN(c2nc(OCC3CCCN3C)nc3c2CCN(c2cccc4cccc(Cl)c24)C3)CC1CC#N (stereo not drawn) + Cc1c(S(C)(=O)=O)c(-c2cc(F)cc(N3CCN(c4ccc(NS(=O)(=O)c5ccc(NC(CCN6CCC(C(=O)OCCCP(=O)(O)O)CC6)CSc6ccccc6)c(S(=O)(=O)C(F)(F)F)c5)cc4)CC3)c2)c(-c2ccc(Cl)cc2)n1C(C)C under SYO-1 complex spheroid growth, percent test/control had viability, T/C of 96.3

* * *

- Tested on: SYO-1 complex spheroid growth, percent test/control
- protocol-description: Anticancer human tumor SYO-1 cell line growth inhibition [Asc]; active = viability on the fitted dose curve at most 10% of control; inactive = the rest;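 also: compound exposure lasted 7 days after spheroids grew 3 days; 100% = DMSO vehicle control viability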
- stated-conditions: second compound 10 µM; first compound 1 µM
Your response should consist of one outcome taken from active, inactive

1. C=C(F)C(=O)N1CCN(c2nc(OCC3CCCN3C)nc3c2CCN(c2cccc4cccc(Cl)c24)C3)CC1CC#N (stereo not drawn) + Cc1c(S(C)(=O)=O)c(-c2cc(F)cc(N3CCN(c4ccc(NS(=O)(=O)c5ccc(NC(CCN6CCC(C(=O)OCCCP(=O)(O)O)CC6)CSc6ccccc6)c(S(=O)(=O)C(F)(F)F)c5)cc4)CC3)c2)c(-c2ccc(Cl)cc2)n1C(C)C : inactive
2. COc1c(OCCCN2CCOCC2)ccc2c3n(c(=NC(=O)c4cnc(N)nc4)nc12)CCN3 + Cc1c(S(C)(=O)=O)c(-c2cc(F)cc(N3CCN(c4ccc(NS(=O)(=O)c5ccc(NC(CCN6CCC(C(=O)OCCCP(=O)(O)O)CC6)CSc6ccccc6)c(S(=O)(=O)C(F)(F)F)c5)cc4)CC3)c2)c(-c2ccc(Cl)cc2)n1C(C)C : active
3. O=C(c1ccc(F)c(F)c1Nc1ccc(I)cc1F)N1CC(O)([C@@H]2CCCCN2)C1 + Cc1c(S(C)(=O)=O)c(-c2cc(F)cc(N3CCN(c4ccc(NS(=O)(=O)c5ccc(NC(CCN6CCC(C(=O)OCCCP(=O)(O)O)CC6)CSc6ccccc6)c(S(=O)(=O)C(F)(F)F)c5)cc4)CC3)c2)c(-c2ccc(Cl)cc2)n1C(C)C : inactive
4. O=C(c1cc(Cc2n[nH]c(=O)c3ccccc23)ccc1F)N1CCN(C(=O)C2CC2)CC1 + Cc1c(S(C)(=O)=O)c(-c2cc(F)cc(N3CCN(c4ccc(NS(=O)(=O)c5ccc(NC(CCN6CCC(C(=O)OCCCP(=O)(O)O)CC6)CSc6ccccc6)c(S(=O)(=O)C(F)(F)F)c5)cc4)CC3)c2)c(-c2ccc(Cl)cc2)n1C(C)C : inactive
5. C=CC(=O)N1CCN(c2nc(=O)n(-c3c(C)ccnc3C(C)C)c3nc(-c4c(O)cccc4F)c(F)cc23)C(C)C1 (stereo not drawn) + Cc1c(S(C)(=O)=O)c(-c2cc(F)cc(N3CCN(c4ccc(NS(=O)(=O)c5ccc(NC(CCN6CCC(C(=O)OCCCP(=O)(O)O)CC6)CSc6ccccc6)c(S(=O)(=O)C(F)(F)F)c5)cc4)CC3)c2)c(-c2ccc(Cl)cc2)n1C(C)C : inactive

Prompt: Hi, sorry to bother you, what did the test record for CNC(C)C(=O)NC1CN(S(=O)(=O)c2cccc(S(=O)(=O)N3CCC4CCC(C(=O)NC(c5ccccc5)c5ccccc5)N4C(=O)C(NC(=O)C(C)NC)C3)c2)CCC2CCC(C(=O)NC(c3ccccc3)c3ccccc3)N2C1=O (stereo not drawn) + Cc1c(S(C)(=O)=O)c(-c2cc(F)cc(N3CCN(c4ccc(NS(=O)(=O)c5ccc(NC(CCN6CCC(C(=O)OCCCP(=O)(O)O)CC6)CSc6ccccc6)c(S(=O)(=O)C(F)(F)F)c5)cc4)CC3)c2)c(-c2ccc(Cl)cc2)n1C(C)C ?
Response: inactive

Prompt: Hi, sorry to bother you, what did the test record for C#Cc1c(F)ccc2cc(O)cc(-c3ncc4c(N5CC6CCC(C5)N6)nc(OCC56CCCN5CC(F)C6)nc4c3F)c12 (stereo not drawn) + Cc1c(S(C)(=O)=O)c(-c2cc(F)cc(N3CCN(c4ccc(NS(=O)(=O)c5ccc(NC(CCN6CCC(C(=O)OCCCP(=O)(O)O)CC6)CSc6ccccc6)c(S(=O)(=O)C(F)(F)F)c5)cc4)CC3)c2)c(-c2ccc(Cl)cc2)n1C(C)C ?
Response: inactive

Prompt: Hi, sorry to bother you, what did the test record for CCN1CCN(Cc2ccc(Nc3ncc(F)c(-c4cc(F)c5nc(C)n(C(C)C)c5c4)n3)nc2)CC1 + Cc1c(S(C)(=O)=O)c(-c2cc(F)cc(N3CCN(c4ccc(NS(=O)(=O)c5ccc(NC(CCN6CCC(C(=O)OCCCP(=O)(O)O)CC6)CSc6ccccc6)c(S(=O)(=O)C(F)(F)F)c5)cc4)CC3)c2)c(-c2ccc(Cl)cc2)n1C(C)C ?
Response: inactive
